Taken from paper PMC6656587.

Test system: PAM212 keratinocytes
Assay: PAM212 keratinocyte growth inhibition with UVA light
Assay type: cell-based, mouse
Conditions: plus UVA light
Assay Readout: photo-activity on keratinocyte growth (in words)

1) Cc1c(O)ccc2c(C(F)(F)F)cc(=O)oc12 [Compound 37] = inactive
2) O=c1cc(C(F)(F)F)c2ccc(O)cc2o1 [Compound 47, 4-trifluoromethyl-7-hydroxycoumarin] = inactive
3) O=c1ccc2ccc(O)cc2o1 [Compound 1, umbelliferone] = no activity
4) Cc1c(F)c(=O)oc2c(C)c(O)ccc12 [Compound 68, 3-fluoro-4,8-dimethyl-7-hydroxycoumarin] = no activity
